TEST TARGET: KRAS G13D (Homo sapiens (Human), UniProt P01116+P62937, G13D)
Sequence (P01116 other isoform, or with tags, fused parts or gaps G13D): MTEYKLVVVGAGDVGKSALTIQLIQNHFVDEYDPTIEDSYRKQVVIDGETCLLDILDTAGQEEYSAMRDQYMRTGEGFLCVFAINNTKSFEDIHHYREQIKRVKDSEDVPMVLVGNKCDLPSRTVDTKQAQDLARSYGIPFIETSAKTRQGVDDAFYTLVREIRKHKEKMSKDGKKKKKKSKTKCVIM
Sequence (P62937 whole entry): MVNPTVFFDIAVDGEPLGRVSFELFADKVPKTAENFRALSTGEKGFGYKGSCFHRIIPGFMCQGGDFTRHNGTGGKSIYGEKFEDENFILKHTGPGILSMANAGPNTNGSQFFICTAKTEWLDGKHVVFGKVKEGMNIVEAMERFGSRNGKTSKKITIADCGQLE
ASSAY NOTES: Ras-Raf disruption/FRET/MOA assay (BRAF RBD, Cyclophilin A)
Format: biochemical
CONDITIONS USED: read-out: KRAS G13D FRET data IC50
pIC50: −log10 of the molar value.
Recorded pIC50 values for a group of compounds are listed next.

INSERT INTO assay_data (chemical_smiles, endpoint_result) VALUES
  ('CCn1c(-c2cccnc2[C@H](C)OC)c2c3cc(ccc31)-c1cc(O)cc(c1)C[C@H](NC(=O)[C@H](C(C)C)N(C)C(=O)[C@H]1OCC[C@H]1N)C(=O)N1CCC[C@H](N1)C(=O)OCC(C)(C)C2', '6.00 to 7.00');

# context switch: different compound, same pIC50
Prompt: // returns reported pIC50 for input CCn1c(-c2cccnc2[C@H](C)OC)c2c3cc(ccc31)-c1csc(n1)C[C@H](NC(=O)[C@H](C(C)C)N(C)C(=O)N1CC3(CN(C)C3)C1)C(=O)N1CCC[C@H](N1)C(=O)OCC(C)(C)C2
Response: 6.00 to 7.00

* * *

Recorded IC50 values for a group of molecules are listed next.
TEST TARGET: KRAS G12V (Homo sapiens (Human), UniProt P01116+P62937, G12V)
Sequence (P01116 other isoform, or with tags, fused parts or gaps G12V): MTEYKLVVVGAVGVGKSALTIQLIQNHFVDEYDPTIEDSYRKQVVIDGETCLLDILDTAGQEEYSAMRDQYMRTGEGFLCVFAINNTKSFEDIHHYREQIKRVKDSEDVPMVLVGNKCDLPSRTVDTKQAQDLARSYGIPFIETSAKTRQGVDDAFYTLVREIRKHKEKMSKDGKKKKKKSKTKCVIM
Sequence (P62937 whole entry): as the sequence (P62937 whole entry) above
ASSAY NOTES: Ras-Raf disruption/FRET/MOA assay (BRAF RBD, Cyclophilin A)
Format: biochemical
CONDITIONS USED: read-out: KRAS G12V FRET IC50

Prompt: // returns reported IC50 for input CCn1c(-c2cccnc2[C@H](C)OC)c2c3cc(ccc31)-c1csc(n1)C[C@H](NC(=O)[C@H](C(C)C)N(C)C(=O)N(C)[C@H]1CCN(C)C1)C(=O)N1CCC[C@H](N1)C(=O)OCC(C)(C)C2
Response: 1 to 10 µM

Prompt: Can you handle CCn1c(-c2cccnc2[C@H](C)OC)c2c3cc(ccc31)-c1cc(O)cc(c1)C[C@H](NC(=O)[C@H](C(C)C)N(C)C(=O)[C@@]1(F)CCN(C(=O)OC)C1)C(=O)N1CCC[C@H](N1)C(=O)OCC(C)(C)C2 next?
Response: 0.01 to 0.1 µM

Prompt: Can you handle CCn1c(-c2cccnc2[C@H](C)OC)c2c3cc(ccc31)-c1cc(O)cc(c1)C[C@H](NC(=O)C(C)=C(C)C)C(=O)N1CCC[C@H](N1)C(=O)OCC(C)(C)C2 next?
Response: 1 to 10 µM

Prompt: Can you handle CCn1c(-c2cccnc2[C@H](C)OC)c2c3cc(ccc31)-c1csc(n1)C[C@H](NC(=O)[C@H](C(C)C)N(C)C(=O)N1CC3CCC1CN3C)C(=O)N1CCC[C@H](N1)C(=O)OCC(C)(C)C2 next?
Response: 1 to 10 µM

Prompt: Can you handle CCn1c(-c2cccnc2[C@H](C)OC)c2c3cc(ccc31)-c1csc(n1)C[C@H](NC(=O)[C@H](C(C)C)N(C)C(=O)N1CC[C@]3(CCNC3=O)C1)C(=O)N1CCC[C@H](N1)C(=O)OCC(C)(C)C2 next?
Response: 1 to 10 µM

* * *

TEST TARGET: KRAS G12S (Homo sapiens (Human), UniProt P01116+P62937, G12S)
Sequence (P01116 other isoform, or with tags, fused parts or gaps G12S): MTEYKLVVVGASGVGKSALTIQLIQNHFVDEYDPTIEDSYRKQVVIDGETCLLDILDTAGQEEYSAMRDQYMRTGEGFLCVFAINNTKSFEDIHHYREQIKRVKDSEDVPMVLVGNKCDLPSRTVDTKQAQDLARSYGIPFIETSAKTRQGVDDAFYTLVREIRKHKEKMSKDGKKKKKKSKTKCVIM
Sequence (P62937 whole entry): as the sequence (P62937 whole entry) above
ASSAY NOTES: Ras-Raf disruption/FRET/MOA assay (BRAF RBD, Cyclophilin A)
Type: biochemical
CONDITIONS USED: read-out: KRAS G12S FRET IC50
pIC50: −log10 of the molar value.
REPORTED ENDPOINT: pIC50

Prompt: // returns reported pIC50 for input CCn1c(-c2cccnc2[C@H](C)OC)c2c3cc(ccc31)-c1csc(n1)C[C@H](NC(=O)[C@H](C(C)C)N(C)C(=O)N1CC[C@@]13CCCN(C)C3)C(=O)N1CCC[C@H](N1)C(=O)OCC(C)(C)C2
Response: 6.00 to 7.00
